The measurements presented in this section are drawn from ChEMBL document CHEMBL5352410.

- System: Pichia kudriavzevii
- experimental_protocol: Antifungal activity against Pichia kudriavzevii by CLSI based broth microdilution method
- Type: functional
# key: entry, value: MIC
Field: numeric (µg/mL). Do not append units.

IN: State, in one line, measured MIC of Clc1ccc(C(Cn2cncn2)[Se]C(Cn2cncn2)c2ccc(Cl)cc2Cl)c(Cl)c1 (centres undefined)
OUT: 64

IN: State, in one line, measured MIC of Clc1ccc(C(Cn2ccnc2)[Se]C(Cn2ccnc2)c2ccc(Cl)cc2)cc1 (centres undefined)
OUT: 16

----------
# key: entry, value: pIC50
- experimental_protocol: Cytotoxicity against human HL-60 cells by MTT assay
- Format: toxicity, cell-based
Give only the number. pIC50 is defined as minus log10 of concentration in molar units.

Worked cases, answers included:
Clc1ccc(C(Cn2ccnc2)[Se]C(Cn2ccnc2)c2ccc(Cl)cc2)cc1 (centres undefined): 5.29
Cc1ccc(C(Cn2ccnc2)[Se]C(Cn2ccnc2)c2ccc(C)cc2)cc1 (centres undefined): 5.09

IN: State, in one line, measured pIC50 of Clc1ccc(C(Cn2ccnc2)[Se][Se]C(Cn2ccnc2)c2ccc(Cl)cc2)cc1 (centres undefined)
OUT: 4.90

----------
- Tested on: Cryptococcus neoformans
- experimental_protocol: Antifungal activity against Cryptococcus neoformans by CLSI based broth microdilution method
- Type: functional
# key: entry, value: MIC

Worked cases, answers included:
Clc1ccc(C(Cn2ccnc2)[Se]C(Cn2ccnc2)c2ccc(Cl)cc2)cc1 (stereo not given): > 64 µg/mL
Clc1ccc(C(Cn2cnnn2)[Se]C(Cn2cnnn2)c2ccc(Cl)cc2Cl)c(Cl)c1 (stereo not given): > 64 µg/mL
Fc1ccc(C(Cn2ccnc2)[Se]C(Cn2ccnc2)c2ccc(F)cc2F)c(F)c1 (stereo not given): 16 µg/mL

IN: State, in one line, measured MIC of Clc1ccc(C(Cn2cnnn2)[Se]C(Cn2cnnn2)c2ccc(Cl)cc2)cc1 (stereo not given)
OUT: > 64 µg/mL

IN: State, in one line, measured MIC of Clc1ccc(C(Cn2ccnn2)[Se]C(Cn2ccnn2)c2ccc(Cl)cc2)cc1 (stereo not given)
OUT: > 64 µg/mL

----------
- System: Candida parapsilosis
- experimental_protocol: Antifungal activity against Candida parapsilosis by CLSI based broth microdilution method
- Assay type: functional
- assay_setup: Lodderomyces parapsilosis
# key: entry, value: MIC
Field: numeric (µg/mL). Do not append units.

IN: State, in one line, measured MIC of Fc1ccc(C(Cn2ccnc2)[Se]C(Cn2ccnc2)c2ccc(F)cc2F)c(F)c1 (centres undefined)
OUT: 8

IN: State, in one line, measured MIC of Clc1ccc(C(Cn2cncn2)[Se]C(Cn2cncn2)c2ccc(Cl)cc2Cl)c(Cl)c1 (centres undefined)
OUT: 64

IN: State, in one line, measured MIC of Fc1ccc(C(Cn2ccnc2)[Se]C(Cn2ccnc2)c2ccc(F)cc2)cc1 (centres undefined)
OUT: 16

----------
- Tested on: Pichia kudriavzevii
- experimental_protocol: Antifungal activity against Pichia kudriavzevii by CLSI based broth microdilution method
- Type: functional
parameter_measured: MIC (mg/L)
Field: numeric (mg/L). Do not append units.

c1ccc(C(Cn2ccnc2)[Se]C(Cn2ccnc2)c2ccccc2)cc1 (stereo not given): 16

Attention now shifts to the item below.
IN: Report the value of MIC obtained on Pichia kudriavzevii for Fc1ccc(C(Cn2ccnc2)[Se]C(Cn2ccnc2)c2ccc(F)cc2)cc1 (stereo not given) .
OUT: 32

----------
- experimental_protocol: Cytotoxicity against human PC-3 cells by MTT assay
- Format: toxicity, cell-based
Decision: IC50 beneath 3 µM gives Satisfied; IC50 meeting or exceeding 3 µM gives Not satisfied.

Clc1ccc(C(Cn2ccnc2)[Se][Se]C(Cn2ccnc2)c2ccc(Cl)cc2Cl)c(Cl)c1 (configuration not stated): Satisfied
Fc1ccc(C(Cn2ccnc2)[Se]C(Cn2ccnc2)c2ccc(F)cc2F)c(F)c1 (configuration not stated): Satisfied
Clc1ccc(C(Cn2ccnc2)[Se]C(Cn2ccnc2)c2ccc(Cl)cc2)cc1 (configuration not stated): Satisfied
Cc1ccc(C(Cn2ccnc2)[Se]C(Cn2ccnc2)c2ccc(C)cc2)cc1 (configuration not stated): Satisfied

IN: Find out if reported IC50 for Cc1ccc(C(Cn2ccnc2)[Se][Se]C(Cn2ccnc2)c2ccc(C)cc2)cc1 (configuration not stated) is less than 3 µM
OUT: Not satisfied

IN: Find out if reported IC50 for CC(=O)O[C@H]1C(=O)[C@@]2(C)[C@H]([C@H](OC(=O)c3ccccc3)[C@]3(O)C[C@H](OC(=O)[C@H](O)[C@@H](NC(=O)c4ccccc4)c4ccccc4)C(C)=C1C3(C)C)[C@]1(OC(C)=O)CO[C@@H]1C[C@@H]2O is less than 3 µM
OUT: Satisfied

----------
- System: Candida albicans
- experimental_protocol: Fungicidal activity against Candida albicans sc5314
- Assay type: functional
# key: entry, value: MFC

Worked cases, answers included:
Clc1ccc(C(Cn2ccnc2)[Se][Se]C(Cn2ccnc2)c2ccc(Cl)cc2)cc1 (configuration not stated): 32 µg/mL
Clc1ccc(C(Cn2ccnc2)[Se]C(Cn2ccnc2)c2ccc(Cl)cc2)cc1 (configuration not stated): 2 µg/mL
Fc1ccc(C(Cn2ccnc2)[Se]C(Cn2ccnc2)c2ccc(F)cc2)cc1 (configuration not stated): 16 µg/mL
Fc1ccc(C(Cn2ccnc2)[Se][Se]C(Cn2ccnc2)c2ccc(F)cc2F)c(F)c1 (configuration not stated): 16 µg/mL
Fc1ccc(C(Cn2ccnc2)[Se]C(Cn2ccnc2)c2ccc(F)cc2F)c(F)c1 (configuration not stated): 8 µg/mL

IN: State, in one line, measured MFC of c1ccc(C(Cn2ccnc2)[Se][Se]C(Cn2ccnc2)c2ccccc2)cc1 (configuration not stated)
OUT: 16 µg/mL

IN: State, in one line, measured MFC of Cc1ccc(C(Cn2ccnc2)[Se]C(Cn2ccnc2)c2ccc(C)cc2)cc1 (configuration not stated)
OUT: 16 µg/mL

IN: State, in one line, measured MFC of Cc1ccc(C(Cn2ccnc2)[Se][Se]C(Cn2ccnc2)c2ccc(C)cc2)cc1 (configuration not stated)
OUT: 8 µg/mL

IN: State, in one line, measured MFC of Fc1ccc(C(Cn2ccnc2)[Se][Se]C(Cn2ccnc2)c2ccc(F)cc2)cc1 (configuration not stated)
OUT: > 64 µg/mL

IN: State, in one line, measured MFC of Clc1ccc(C(Cn2ccnc2)[Se]C(Cn2ccnc2)c2ccc(Cl)cc2Cl)c(Cl)c1 (configuration not stated)
OUT: 64 µg/mL

IN: State, in one line, measured MFC of c1ccc(C(Cn2ccnc2)[Se]C(Cn2ccnc2)c2ccccc2)cc1 (configuration not stated)
OUT: 8 µg/mL

IN: State, in one line, measured MFC of Clc1ccc(C(Cn2ccnc2)[Se][Se]C(Cn2ccnc2)c2ccc(Cl)cc2Cl)c(Cl)c1 (configuration not stated)
OUT: 8 µg/mL

----------
# key: entry, value: MFC
- System: Candida albicans
- experimental_protocol: Fungicidal activity against FCZ-resistant Candida albicans CaR
- Type: functional

c1ccc(C(Cn2ccnc2)[Se]C(Cn2ccnc2)c2ccccc2)cc1 (configuration not stated): > 64 µg/mL
Cc1ccc(C(Cn2ccnc2)[Se][Se]C(Cn2ccnc2)c2ccc(C)cc2)cc1 (configuration not stated): > 64 µg/mL
Fc1ccc(C(Cn2ccnc2)[Se][Se]C(Cn2ccnc2)c2ccc(F)cc2F)c(F)c1 (configuration not stated): > 64 µg/mL
Fc1ccc(C(Cn2ccnc2)[Se]C(Cn2ccnc2)c2ccc(F)cc2F)c(F)c1 (configuration not stated): > 64 µg/mL
c1ccc(C(Cn2ccnc2)[Se][Se]C(Cn2ccnc2)c2ccccc2)cc1 (configuration not stated): > 64 µg/mL

IN: Report the value of MFC obtained on Candida albicans for Clc1ccc(C(Cn2ccnc2)[Se]C(Cn2ccnc2)c2ccc(Cl)cc2)cc1 (configuration not stated) .
OUT: > 64 µg/mL

IN: Report the value of MFC obtained on Candida albicans for Cc1ccc(C(Cn2ccnc2)[Se]C(Cn2ccnc2)c2ccc(C)cc2)cc1 (configuration not stated) .
OUT: > 64 µg/mL

IN: Report the value of MFC obtained on Candida albicans for Fc1ccc(C(Cn2ccnc2)[Se][Se]C(Cn2ccnc2)c2ccc(F)cc2)cc1 (configuration not stated) .
OUT: > 64 µg/mL

IN: Report the value of MFC obtained on Candida albicans for Clc1ccc(C(Cn2ccnc2)[Se][Se]C(Cn2ccnc2)c2ccc(Cl)cc2Cl)c(Cl)c1 (configuration not stated) .
OUT: 16 µg/mL

IN: Report the value of MFC obtained on Candida albicans for Fc1ccc(C(Cn2ccnc2)[Se]C(Cn2ccnc2)c2ccc(F)cc2)cc1 (configuration not stated) .
OUT: > 64 µg/mL

IN: Report the value of MFC obtained on Candida albicans for Clc1ccc(C(Cn2ccnc2)[Se]C(Cn2ccnc2)c2ccc(Cl)cc2Cl)c(Cl)c1 (configuration not stated) .
OUT: > 64 µg/mL

IN: Report the value of MFC obtained on Candida albicans for Clc1ccc(C(Cn2ccnc2)[Se][Se]C(Cn2ccnc2)c2ccc(Cl)cc2)cc1 (configuration not stated) .
OUT: > 64 µg/mL

----------
- experimental_protocol: Metabolic stability in mouse liver microsome assessed as clearance
- Type: ADME
- assay_setup: liver microsomes, read-out: CLH
# key: entry, value: CLint scaled
Field: numeric (mL/min/kg). Do not append units.

Worked cases, answers included:
Cc1ccc(C(Cn2ccnc2)[Se][Se]C(Cn2ccnc2)c2ccc(C)cc2)cc1 (centres undefined): 68.9
Fc1ccc(C(Cn2ccnc2)[Se]C(Cn2ccnc2)c2ccc(F)cc2F)c(F)c1 (centres undefined): 558
Clc1ccc(C(Cn2ccnc2)[Se][Se]C(Cn2ccnc2)c2ccc(Cl)cc2)cc1 (centres undefined): 25.4

Attention now shifts to the item below.
IN: State, in one line, measured CLint scaled of Clc1ccc(C(Cn2ccnc2)[Se][Se]C(Cn2ccnc2)c2ccc(Cl)cc2Cl)c(Cl)c1 (centres undefined)
OUT: 134
